- Target or system: Eukaryotic translation initiation factor 4H (Homo sapiens) (UniProt Q15056)
- Protocol summary: human eIF4H binding inhibitors, primary screen, translation initiation inhibitor project, biochemical, uHTS, fluorescence polarization (AID 2012);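 note: calls also rest on retests at 20 µM and on dose response follow-up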
- Protocol conditions: eIF4H fluorescence polarization binding assay; at 35 µM
The campaign covered roughly 290,000 compounds. About 2,700 (0.93%) were called active. The rule behind the calls is not given here. This excerpt belongs to a sample that is enriched for actives.
Please answer using one outcome listed in label 1 for active, label 0 for inactive

-- ask Assay outcome for O=C(O)c1cc(S(=O)(=O)NC2CCCc3ccccc32)ccc1O (configuration not stated) : what was it?
-- reply label 0

-- ask So what was the verdict on "O=[N+]([O-])c1cc([N+](=O)[O-])c(Oc2cc(F)cc(F)c2F)cc1NN1CCCCC1" in this test?
-- reply label 0

-- ask Dear all, I need the recorded test outcome for "Cc1cccc(-c2nc3ccc(C(=O)NCCN4CCN(C)CC4)cc3nc2-c2cccc(C)c2)c1" , thank you.
-- reply label 0

-- ask Please indicate how the test categorized "Cc1ccc(CCC(=O)Nc2ncc(Cc3cc(Cl)ccc3Cl)s2)o1" .
-- reply label 0

-- ask Lab log entry: "c1ccc(CCC2=NCCn3cccc32)cc1" — outcome as called in the assay?
-- reply label 1

-- ask Test call, this compound: Cc1ccc(C(=O)OC2CCCN(C)C2)cc1 (configuration not stated)
-- reply label 0

-- ask I'd appreciate the recorded outcome for CC1CSc2nnc(CCc3ccccc3)n21 (configuration not stated) from this test.
-- reply label 0

-- ask Recorded test call requested for "CCN(CC)C(=O)CSC(Nc1cccc(F)c1)=C(C#N)C#N"
-- reply label 1

-- ask What outcome does the record of this test show for "COc1ccc(S(=O)(=O)NCCCCOc2ccc(Cl)cc2)cc1" ?
-- reply label 0

-- ask Please share the test call associated with "CN1/C(=C\C(=O)c2cccnc2Cl)C(C)(C)c2ccccc21" .
-- reply label 0

-- ask Outcome logged for CCC(C(=O)NC1CCCC1)N(C(=O)Cn1nnc(-c2ccc(C)o2)n1)c1ccc(OC)c(OC)c1 (configuration not stated) in this assay:
-- reply label 0

-- ask What was the test verdict on "COCc1ccc(CN2CCC(Oc3ccc(C(=O)NCc4ccccn4)cc3)CC2)o1" ?
-- reply label 0

-- ask Entry CC(C(=O)Nc1ccc(O)c(C(=O)O)c1)N1C(=O)/C(=C/c2cccs2)SC1=S (configuration not stated) : call = ?
-- reply label 0

-- ask What is the recorded call for this compound in the test? COc1ccc(CN2CC(C(=O)NCCc3ccc(Cl)cc3)CC2=O)cc1 (configuration not stated)
-- reply label 0

-- ask Recorded test outcome, item Cc1ccc(C(C[N+](=O)[O-])c2c(C)cc3ccccn23)cc1 (configuration not stated)
-- reply label 1

-- ask # outcome recorded in this test, key = "COc1ccccc1OCc1ccc(C(=O)N2CCN(C)CC2)o1"
-- reply label 0

-- ask Fill in: this test's call for CCC(C)(C)NC(=O)C(c1ccc(O)cc1)N(Cc1ccco1)C(=O)CCC(=O)Nc1ccccn1 (configuration not stated) is ___
-- reply label 0

-- ask What call does the record list for "Cc1ccc(Cc2cnc(N)s2)o1" ?
-- reply label 1

-- ask What classification did "CCOC(=O)N1CCN(C(=O)COc2ccc(Br)cc2)CC1" end up with in this test?
-- reply label 0

-- ask I would be grateful if you could indicate the recorded call for "Cc1ccc(S(=O)(=O)N2CCC(Oc3ccc(-n4cnnn4)cc3)CC2)cc1" .
-- reply label 0

-- ask Which result was noted for this compound in the test: "CN(C(=O)C1CCN(c2ncnc3c2nc2n3CCCCC2)CC1)C1CCCCC1"
-- reply label 0

-- ask Name the outcome recorded for "CCCN(c1ccc(C)cc1)c1nc(=O)c2cccnc2s1" in the assay.
-- reply label 1

-- ask Hey, what did the test say about CC1=C(C(=O)Nc2ccccc2)C(c2ccco2)C(C#N)=C(SCC(N)=O)N1 (configuration not stated) ?
-- reply label 0

-- ask Call for entry CCOC(=O)c1c(C)[nH]c(C2=NNC(=NC(C)COC)SC2)c1C (configuration not stated) :
-- reply label 1

-- ask Which outcome was entered for the compound "COc1cc2c(cc1OC)CN(C(=O)c1cc(S(=O)(=O)N3CCCCC3)ccc1Cl)CC2" in this test?
-- reply label 0

-- ask Outcome logged for "COc1cc2c(C(=O)N3CCN(C)CC3)c(CSc3ccccc3)n(C)c2cc1Br" in this assay:
-- reply label 1

-- ask Identify the outcome logged in this assay for the compound shown: "COc1ccc(OC)c(S(=O)(=O)n2c([N+](=O)[O-])cnc2C)c1"
-- reply label 0
